All figures here come from the supplement of paper PMC5998384.

Consider the following sequences and their measured thermal stability score readings.
test system: HeLa Kyoto; experiment: thermal stability score vs G1/S (z-score of summed log2 fold changes over temperatures); higher = more thermally stable than in G1/S; settings: cell cycle stage: early G1 (4.5 h after nocodazole release)
Give only the figure.

See these solved cases before continuing.
MKFLLDILLLLPLLIVCSLESFVKLFIPKRRKSVTGEIVLITGAGHGIGRLTAYEFAKLKSKLVLWDINKHGLEETAAKCKGLGAKVHTFVVDCSNREDIYSSAKKVKAEIGDVSILVNNAGVVYTSDLFATQDPQIEKTFEVNVLAHFWTTKAFLPAMTKNNHGHIVTVASAAGHVSVPFLLAYCSSKFAAVGFHKTLTDELAALQITGVKTTCLCPNFVNTGFIKNPSTSLGPTLEPEEVVNRLMHGILTEQKMIFIPSSIAFLTTLERILPERFLAVLKRKISVKFDAVIGYKMKAQ [HSD17B11]; 0.073
MGAPLLSPGWGAGAAGRRWWMLLAPLLPALLLVRPAGALVEGLYCGTRDCYEVLGVSRSAGKAEIARAYRQLARRYHPDRYRPQPGDEGPGRTPQSAEEAFLLVATAYETLKDEETRKDYDYMLDHPEEYYSHYYHYYSRRLAPKVDVRVVILVSVCAISVFQFFSWWNSYNKAISYLATVPKYRIQATEIAKQQGLLKKAKEKGKNKKSKEEIRDEEENIIKNIIKSKIDIKGGYQKPQICDLLLFQIILAPFHLCSYIVWYCRWIYNFNIKGKEYGEEERLYIIRKSMKMSKSQFDSLEDHQKETFLKRELWIKENYEVYKQEQEEELKKKLANDPRWKRYRRWMKNEGPGRLTFVDD [DNAJC25]; 0.0789
MVAVLGGRGVLRLRLLLSALKPGIHVPRAGPAAAFGTSVTSAKVAVNGVQLHYQQTGEGDHAVLLLPGMLGSGETDFGPQLKNLNKKLFTVVAWDPRGYGHSRPPDRDFPADFFERDAKDAVDLMKALKFKKVSLLGWSDGGITALIAAAKYPSYIHKMVIWGANAYVTDEDSMIYEGIRDVSKWSERTRKPLEALYGYDYFARTCEKWVDGIRQFKHLPDGNICRHLLPRVQCPALIVHGEKDPLVPRFHADFIHKHVKGSRLHLMPEGKHNLHLRFADEFNKLAEDFLQ [BPHL]; 0.683
MRVLVGGGTGFIGTALTQLLNARGHEVTLVSRKPGPGRITWDELAASGLPSCDAAVNLAGENILNPLRRWNETFQKEVIGSRLETTQLLAKAITKAPQPPKAWVLVTGVAYYQPSLTAEYDEDSPGGDFDFFSNLVTKWEAAARLPGDSTRQVVVRSGVVLGRGGGAMGHMLLPFRLGLGGPIGSGHQFFPWIHIGDLAGILTHALEANHVHGVLNGVAPSSATNAEFAQTLGAALGRRAFIPLPSAVVQAVFGRQRAIMLLEGQKVIPQRTLATGYQYSFPELGAALKEIVA [SDR39U1]; -0.328
MATAALLRGATPGRGGPVWRWRLRAAPRCRLAHSSCSPGGDPTAGAAWACFRLDGRTLLRVRGPDAAPFLLGLLTNELPLPSPAAAGAPPAARAGYAHFLNVQGRTLYDVILYGLQEHSEVSGFLLECDSSVQGALQKHLALYRIRRKVTVEPHPELRVWAVLPSSPEACGAASLQERAGAAAILIRDPRTARMGWRLLTQDEGPALVPGGRLGDLWDYHQHRYLQGVPEGVRDLPPGVALPLESNLAFMNGVSFTKGCYIGQELTARTHHMGVIRKRLFPVRFLDPLPTSGITPGATVLTASGQTVGKFRAGQGNVGLALLWSEKIKGPLHIRASEGAQVALAASVPDWWPTVSK [IBA57]; 0.0549

# input Assign thermal stability score to the following record: MPMYQVKPYHGGGAPLRVELPTCMYRLPNVHGRSYGPAPGAGHVQEESNLSLQALESRQDDILKRLYELKAAVDGLSKMIQTPDADLDVTNIIQADEPTTLTTNALDLNSVLGKDYGALKDIVINANPASPPLSLLVLHRLLCEHFRVLSTVHTHSSVKSVPENLLKCFGEQNKKQPRQDYQLGFTLIWKNVPKTQMKFSIQTMCPIEGEGNIARFLFSLFGQKHNAVNATLIDSWVDIAIFQLKEGSSKEKAAVFRSMNSALGKSPWLAGNELTVADVVLWSVLQQIGGCSVTVPANVQRWMRSCENLAPFNTALKLLK [AIMP2]
# output 0.153

----------
test system: HeLa Kyoto; assay: melting temperature (median over replicates), in situ; higher = more thermally stable; details: cell cycle stage: mitosis
Outcome Measure: melting temperature (°C)
Lab book: enter the figure in °C, no units written.

See these solved cases before continuing.
MASSNTVLMRLVASAYSIAQKAGMIVRRVIAEGDLGIVEKTCATDLQTKADRLAQMSICSSLARKFPKLTIIGEEDLPSEEVDQELIEDSQWEEILKQPCPSQYSAIKEEDLVVWVDPLDGTKEYTEGLLDNVTVLIGIAYEGKAIAGVINQPYYNYEAGPDAVLGRTIWGVLGLGAFGFQLKEVPAGKHIITTTRSHSNKLVTDCVAAMNPDAVLRVGGAGNKIIQLIEGKASAYVFASPGCKKWDTCAPEVILHAVGGKLTDIHGNVLQYHKDVKHMNSAGVLATLRNYDYYASRVPESIKNALVP [BPNT1]; 57.9
MAAAGARPVELGFAESAPAWRLRSEQFPSKVGGRPAWLGAAGLPGPQALACELCGRPLSFLLQVYAPLPGRPDAFHRCIFLFCCREQPCCAGLRVFRNQLPRKNDFYSYEPPSENPPPETGESVCLQLKSGAHLCRVCGCLGPKTCSRCHKAYYCSKEHQTLDWRLGHKQACAQPDHLDHIIPDHNFLFPEFEIVIETEDEIMPEVVEKEDYSEIIGSMGEALEEELDSMAKHESREDKIFQKFKTQIALEPEQILRYGRGIAPIWISGENIPQEKDIPDCPCGAKRILEFQVMPQLLNYLKADRLGKSIDWGILAVFTCAESCSLGTGYTEEFVWKQDVTDTP [PDCD2]; 48.3
MGKGDPNKPRGKMSSYAFFVQTCREEHKKKHPDSSVNFAEFSKKCSERWKTMSAKEKSKFEDMAKSDKARYDREMKNYVPPKGDKKGKKKDPNAPKRPPSAFFLFCSEHRPKIKSEHPGLSIGDTAKKLGEMWSEQSAKDKQPYEQKAAKLKEKYEKDIAAYRAKGKSEAGKKGPGRPTGSKKKNEPEDEEEEEEEEDEDEEEEDEDEE [HMGB2]; 56.7

# input Assign melting temperature to the following record: MAETEERSLDNFFAKRDKKKKKERSNRAASAAGAAGSAGGSSGAAGAAGGGAGAGTRPGDGGTASAGAAGPGAATKAVTKDEDEWKELEQKEVDYSGLRVQAMQISSEKEEDDNEKRQDPGDNWEEGGGGGGGMEKSSGPWNKTAPVQAPPAPVIVTETPEPAMTSGVYRPPGARLTTTRKTPQGPPEIYSDTQFPSLQSTAKHVESRKDKEMEKSFEVVRHKNRGRDEVSKNQALKLQLDNQYAVLENQKSSHSQYN [CDV3]
# output 53.4

# input Assign melting temperature to the following record: MTRHGKNCTAGAVYTYHEKKKDTAASGYGTQNIRLSRDAVKDFDCCCLSLQPCHDPVVTPDGYLYEREAILEYILHQKKEIARQMKAYEKQRGTRREEQKELQRAASQDHVRGFLEKESAIVSRPLNPFTAKALSGTSPDDVQPGPSVGPPSKDKDKVLPSFWIPSLTPEAKATKLEKPSRTVTCPMSGKPLRMSDLTPVHFTPLDSSVDRVGLITRSERYVCAVTRDSLSNATPCAVLRPSGAVVTLECVEKLIRKDMVDPVTGDKLTDRDIIVLQRGGTGFAGSGVKLQAEKSRPVMQA [NOSIP]
# output 47.8

# input Assign melting temperature to the following record: MLGAWAVEGTAVALLRLLLLLLPPAIRGPGLGVAGVAGAAGAGLPESVIWAVNAGGEAHVDVHGIHFRKDPLEGRVGRASDYGMKLPILRSNPEDQILYQTERYNEETFGYEVPIKEEGDYVLVLKFAEVYFAQSQQKVFDVRLNGHVVVKDLDIFDRVGHSTAHDEIIPMSIRKGKLSVQGEVSTFTGKLYIEFVKGYYDNPKVCALYIMAGTVDDVPKLQPHPGLEKKEEEEEEEEYDEGSNLKKQTNKNRVQSGPRTPNPYASDNSSLMFPILVAFGVFIPTLFCLCRL [MLEC]
# output 53.6

# input Assign melting temperature to the following record: MASADSRRVADGGGAGGTFQPYLDTLRQELQQTDPTLLSVVVAVLAVLLTLVFWKLIRSRRSSQRAVLLVGLCDSGKTLLFVRLLTGLYRDTQTSITDSCAVYRVNNNRGNSLTLIDLPGHESLRLQFLERFKSSARAIVFVVDSAAFQREVKDVAEFLYQVLIDSMGLKNTPSFLIACNKQDIAMAKSAKLIQQQLEKELNTLRVTRSAAPSTLDSSSTAPAQLGKKGKEFEFSQLPLKVEFLECSAKGGRGDVGSADIQDLEKWLAKIA [SRPRB]
# output 50

# input Assign melting temperature to the following record: MSELPGDVRAFLREHPSLRLQTDARKVRCILTGHELPCRLPELQVYTRGKKYQRLVRASPAFDYAEFEPHIVPSTKNPHQLFCKLTLRHINKCPEHVLRHTQGRRYQRALCKYEECQKQGVEYVPACLVHRRRRREDQMDGDGPRPREAFWEPTSSDEGGAASDDSMTDLYPPELFTRKDLGSTEDGDGTDDFLTDKEDEKAKPPREKATDEGRRETTVYRGLVQKRGKKQLGSLKKKFKSHHRKPKSFSSCKQPG [SURF2]
# output 50.3

# input Assign melting temperature to the following record: MTTAARPTFEPARGGRGKGEGDLSQLSKQYSSRDLPSHTKIKYRQTTQDAPEEVRNRDFRRELEERERAAAREKNRDRPTREHTTSSSVSKKPRLDQIPAANLDADDPLTDEEDEDFEEESDDDDTAALLAELEKIKKERAEEQARKEQEQKAEEERIRMENILSGNPLLNLTGPSQPQANFKVKRRWDDDVVFKNCAKGVDDQKKDKRFVNDTLRSEFHKKFMEKYIK [CWC15]
# output 55.1

# input Assign melting temperature to the following record: MASPSLERPEKGAGKSEFRNQKPKPENQDESELLTVPDGWKEPAFSKEDNPRGLLEESSFATLFPKYREAYLKECWPLVQKALNEHHVNATLDLIEGSMTVCTTKKTFDPYIIIRARDLIKLLARSVSFEQAVRILQDDVACDIIKIGSLVRNKERFVKRRQRLIGPKGSTLKALELLTNCYIMVQGNTVSAIGPFSGLKEVRKVVLDTMKNIHPIYNIKSLMIKRELAKDSELRSQSWERFLPQFKHKNVNKRKEPKKKTVKKEYTPFPPPQPESQIDKELASGEYFLKANQKKRQKMEAIKAKQAEAISKRQEERNKAFIPPKEKPIVKPKEASTETKIDVASIKEKVKKAKNKKLGALTAEEIALKMEADEKKKKKKK [KRR1]
# output 50.1
